# SUBJECT_OF_TEST: human recombinant mGluR5 (Homo sapiens)
# Construct: expressed in transfected cells; host or cells: HEK 293 cell line, cultured with tetracycline, hygromycin and geneticin; tetracycline is withdrawn 3-7 days before the assay
# Sequence (P41594 21-1212): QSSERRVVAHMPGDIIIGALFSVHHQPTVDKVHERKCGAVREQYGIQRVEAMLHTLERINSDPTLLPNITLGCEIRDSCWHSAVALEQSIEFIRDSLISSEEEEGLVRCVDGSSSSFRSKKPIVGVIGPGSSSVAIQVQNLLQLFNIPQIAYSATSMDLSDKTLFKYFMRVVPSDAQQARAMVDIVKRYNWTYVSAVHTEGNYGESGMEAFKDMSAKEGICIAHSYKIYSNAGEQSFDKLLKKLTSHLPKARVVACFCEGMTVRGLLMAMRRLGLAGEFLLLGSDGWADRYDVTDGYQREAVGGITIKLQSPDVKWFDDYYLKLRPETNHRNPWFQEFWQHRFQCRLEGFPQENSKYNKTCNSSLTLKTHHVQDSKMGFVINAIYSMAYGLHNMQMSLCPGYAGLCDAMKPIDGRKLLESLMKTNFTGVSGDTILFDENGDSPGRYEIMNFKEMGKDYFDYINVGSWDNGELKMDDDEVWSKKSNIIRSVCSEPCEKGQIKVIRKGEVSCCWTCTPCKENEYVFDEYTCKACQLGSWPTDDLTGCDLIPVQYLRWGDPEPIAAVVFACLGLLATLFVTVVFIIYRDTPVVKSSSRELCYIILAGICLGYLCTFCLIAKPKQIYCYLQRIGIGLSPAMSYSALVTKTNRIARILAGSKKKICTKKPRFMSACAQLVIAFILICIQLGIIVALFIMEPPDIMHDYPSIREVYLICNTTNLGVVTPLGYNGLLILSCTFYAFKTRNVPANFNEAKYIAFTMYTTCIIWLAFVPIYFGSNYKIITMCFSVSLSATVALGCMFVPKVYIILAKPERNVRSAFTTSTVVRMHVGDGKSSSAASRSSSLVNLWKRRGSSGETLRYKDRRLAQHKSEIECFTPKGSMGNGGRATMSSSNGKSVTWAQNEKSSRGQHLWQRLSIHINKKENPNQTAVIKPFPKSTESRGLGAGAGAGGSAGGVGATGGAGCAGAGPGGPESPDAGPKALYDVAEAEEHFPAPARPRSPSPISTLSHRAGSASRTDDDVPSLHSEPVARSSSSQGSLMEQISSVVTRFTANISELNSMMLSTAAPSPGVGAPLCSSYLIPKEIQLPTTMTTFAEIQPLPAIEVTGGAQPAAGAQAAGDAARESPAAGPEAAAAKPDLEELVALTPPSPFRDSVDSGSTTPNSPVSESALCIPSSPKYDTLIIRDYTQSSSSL
# METHOD_NOTES: positive modulation of mGluR5, calcium based FLIPR assay
# Format: cell-based
# CONDITIONS_USED: EC50 of the modulation; HEK 293 cell line expressing human recombinant mGluR5; peak height of Ca fluorescence signal after glutamate at approx. 5% basal stimulation; read-out: EC50
In plain terms, low EC50, meaning strictly below 60 nM, gives 1.0, and everything else gives 0.0.

| COMPOUND | SUBJECT_OF_TEST | CLASS |
| --- | --- | --- |
| COc1cc2c(cc1OC)CCN(C(=O)Cn1nc(-c3ccc(F)cc3)nc1-c1ccc(F)cc1)CC2 | human recombinant mGluR5 (Homo sapiens) | 0.0 |
| O=C(Cn1nc(-c2ccc(F)cc2)nc1-c1ccc(F)cc1)N1CC=C(c2ncccn2)CC1 | human recombinant mGluR5 (Homo sapiens) | 1.0 |
| Cc1cc(-c2nc(-c3ccccc3)n(CC(=O)N3CCc4nc(N)sc4CC3)n2)ccc1F | human recombinant mGluR5 (Homo sapiens) | 0.0 |
| CC(C)c1ncc2c(n1)CCN(C(=O)Cn1nc(-c3ccc(F)cc3)nc1-c1ccc(F)cc1)C2 [Example 7.02.70.] | human recombinant mGluR5 (Homo sapiens) | 0.0 |
| CCCCCc1nc(-c2ccc(F)c(C)c2)nn1CC(=O)N1CCc2nc(C)sc2CC1 | human recombinant mGluR5 (Homo sapiens) | 1.0 |

###

# SUBJECT_OF_TEST: human recombinant mGluR5 (Homo sapiens)
# Construct: expressed in transfected cells; host or cells: HEK 293 cell line, cultured with tetracycline, hygromycin and geneticin; tetracycline is withdrawn 3-7 days before the assay
# METHOD_NOTES: positive modulation of mGluR5, calcium based FLIPR assay
# Format: cell-based
# CONDITIONS_USED: EC50 of the modulation; HEK 293 cell line expressing human recombinant mGluR5; peak height of Ca fluorescence signal after glutamate at approx. 5% basal stimulation; read-out: EC50
Examples of compounds with documented EC50 follow.
OUTCOME_MEASURE: EC50 (nM)

| COMPOUND | MEASURED_RESULT |
| --- | --- |
| O=C(Cn1nc(-c2ccc(F)cc2)nc1-c1ccc(F)cc1)N1CCC(c2nccs2)CC1 [Example 7.02.18.] | 516 |
| O=C(Cn1nc(-c2ccc(F)cc2)nc1-c1ccc(F)cc1)N1CCN(c2nnc(C(F)(F)F)s2)CC1 [Example 7.02.68.] | 198 |
| O=C(Cn1nc(-c2ccc(F)cc2)nc1-c1ccc(F)cc1)N1Cc2ccncc2C1 [Example 7.02.40.] | 1760 |
| Cc1nc2c(s1)CCN(C(=O)Cn1nc(-c3ccc(F)c(C)c3)nc1C1CCCC(C)C1)CC2 (stereo not shown) [Example 7.03.096.] | 355 |
| CNc1nc2c(s1)CCN(C(=O)Cn1nc(-c3ccc(F)cc3)nc1-c1ccc(F)cc1)CC2 [Example 7.04.02.] | 132 |
| O=C(Cn1nc(-c2ccc(F)cc2)nc1-c1ccc(F)cc1)N1CCC(c2ccccn2)C1 (stereo not shown) [Example 7.02.64.] | 976 |
| Cc1cc(-c2nc(C(C)C)n(CC(=O)N3CC=C(c4ccccn4)CC3)n2)ccc1F [Example 7.03.075.] | 1090 |
| Nc1nc2c(s1)CCN(C(=O)Cn1nc(-c3ccc(F)cn3)nc1-c1ccc(F)cc1)CC2 [Example 7.03.115.] | 231 |
| O=C(Cn1nc(-c2ccc(F)cc2)nc1-c1ccc(F)cc1)N1CC=C(c2ncco2)CC1 [Example 7.03.040.] | 54 |
| Cc1cc(-c2nc(-c3ccccc3)n(CC(=O)N3CCc4nc(N)sc4C3)n2)ccc1F [Example 7.02.78.] | 274 |
| CCCCCc1nc(-c2ccc(F)c(C)c2)nn1CC(=O)N1CCN(c2cccc(OC)c2)C(=O)C1 [Example 7.03.109.] | 422 |
| Cc1nc2c(s1)CCN(C(=O)Cn1nc(-c3ccc(OC(F)F)cc3)nc1-c1ccccc1)CC2 [Example 7.03.127] | 40 |
| CCc1nc(-c2ccc(OC(F)F)cc2)nn1CC(=O)N1CCc2nc(C)sc2CC1 [Example 7.03.126] | 201 |
| Cc1nc2c(s1)CCN(C(=O)Cn1nc(-c3ccc(F)c(C)c3)nc1C1CCCCC1)CC2 [Example 7.03.062.] | 155 |
| Cc1nc2c(s1)CCN(C(=O)Cn1nc(-c3ccc(F)cn3)nc1-c1ccc(F)cc1)CC2 [Example 7.03.116.] | 392 |
| CCCCc1nc(-c2ccc(F)c(C)c2)nn1CC(=O)N1Cc2nc(C)sc2C1 [Example 7.03.101.] | 382 |
